ASSAY INFO: small-molecule microarray binders of probe aLefty2, primary screen, biochemical, biotinylated probe, 635/667 nm fluorescence (AID 1094);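 note: score merges spot fluorescence near 667 nm with spot signal-to-noise ratio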
SETUP CONDITIONS: higher = more signal
Recorded composite z-score determines the label; the label ranges are lo (below -0.1), med (-0.1 to below 0.1), hi (0.1 or more)

CC(C)N1C(=O)[C@@]2(c3ccc([N+](=O)[O-])cc3)CC(=O)N(CC34CC5CC(CC(C5)C3)C4)[C@@H]2c2ccc(CO)cc21 ... lo
CC(C)(C)N1CC=CC23O[C@@H]4/C=C\CCCOC(=O)C4[C@H]2C(=O)N(CCO)[C@@H]3C1=O (stereo partly specified) ... lo
O=C1c2ccccc2[C@@]2(Cc3ccccc3N(Cc3ccccc3)C2=O)[C@H](c2ccc(CO)cc2)N1C1CCCCC1 ... lo
CCCCC=C[C@@H](NC(=O)c1ccc(C(=O)OC)cc1)c1ccccc1 ... hi
O=C1OCC=C[C@H]2OC34C=CCN(c5ccc(Cl)cc5)C(=O)[C@H]3N(CCCCCCO)C(=O)[C@@H]4[C@@H]12 (stereo partly specified) ... med
COC(=O)c1ccc(C23CC2(C(NP(=O)(c2ccccc2)c2ccccc2)c2ccccc2)C3)cc1 (stereo unspecified) ... hi
COCCOC(=O)N1C(=O)[C@@]2(c3cc(C#CCC(C(=O)OC)C(=O)OC)ccc31)[C@H](C(=O)N1CCCCCCC1)[C@H]1C(=O)O[C@H](c3ccccc3)[C@H](c3ccccc3)N1[C@@H]2c1ccc(OCCO)cc1 ... hi
CC(C)C[C@@H]1NC(=O)[C@H]2C[C@@H](C(=O)NCCCCCNC(=O)CS)[C@@H](c3cccc(OCCO)c3)N2C1=O ... hi
COC(=O)c1c(CC[C@@H](CO)NC(=O)N[C@@H](Cc2ccccc2)Cn2cc(C3(O)CCCCC3)nn2)oc(C(C)=O)c1C(=O)OC ... med
COCCOC(=O)N1C(=O)[C@@]2(c3cc(C#CCC(C(=O)OC)C(=O)OC)ccc31)[C@H](c1ccccc1OCCO)N1[C@H](c3ccccc3)[C@H](c3ccccc3)OC(=O)[C@H]1[C@@H]2C(=O)N1CCc2cc(OC)c(OC)cc2C1 ... med

----------
ASSAY INFO: E. coli acrAB mutant growth effects, primary screen, E. coli filamentation inducers, strain DRC39, OD650, 24 h (AID 1178);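 note: growth measured as culture turbidity by optical density at 650 nm; test concentration not given here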
SETUP CONDITIONS: higher = more signal, called active from +8 up or from −8 down
ENDPOINT: z-score

COc1cc2c(cc1OC)CN(C(=O)[C@@H]1[C@H]3C(=O)O[C@H](c4ccccc4)[C@H](c4ccccc4)N3[C@H](c3ccccc3OCCO)[C@@]13C(=O)Nc1ccc(C#CCNC(N)=O)cc13)CC2 ... 1.13
CCOC(=O)C1=C[C@@H](C(C)C)N(S(=O)(=O)c2ccc(C)cc2)[C@H]1c1ccc(C(C)C)cc1 ... -0.558
CCCNC(=O)[C@@]1(c2ccc([N+](=O)[O-])cc2)CC(=O)N(CC23CC4CC(CC(C4)C2)C3)[C@@H]1c1ccc(CO)cc1 ... -0.421
[N-]=[N+]=NCc1ccccc1C[C@]1(C(=O)O)N=C(c2ccc(OCCCO)cc2)O[C@H]1c1ccccc1 ... -0.168
C=CCOC(=O)[C@H]1[C@@H]2C(=O)O[C@@H](c3ccccc3)[C@@H](c3ccccc3)N2[C@@H](c2ccc(OCCOC(=O)[C@@H]3C[C@@H]4C(=O)N5CCC[C@H]5C(=O)N4[C@@H]3c3ccc(O)cc3)cc2)[C@]12C(=O)Nc1ccccc12 ... 0.468
CC(C)=CCCC(C)=CC(O)C1C=CC2C(=O)N(c3ccccc3)C(=O)C2N1Nc1ccccc1 (stereo not given) ... -0.994
COCCOC(=O)N1C(=O)[C@@]2(c3ccccc31)[C@H](c1ccc(O)cc1)N1[C@H](c3ccccc3)[C@H](c3ccccc3)OC(=O)[C@H]1[C@@H]2C(=O)N1CCc2cc(OC)c(OC)cc2C1 ... 0.919
COCCCNC(=O)[C@@]1(C)c2ccccc2C(=O)N(Cc2cc(C(F)(F)F)cc(C(F)(F)F)c2)[C@H]1c1ccc(CO)cc1 ... 0.534
CC(C)N1C(=O)C[C@@](C(=O)NCc2ccccc2)(c2ccc([N+](=O)[O-])cc2)[C@H]1c1ccc(CO)cc1 ... 0.531
CN(C)CCCCCCNC(=O)[C@H]1C[C@H]2C(=O)N[C@@H](CCCCN)C(=O)N2[C@H]1c1ccc(O)cc1 ... -0.108
